- System: HepG2
- test protocol: cytotoxicity call (relative viability < 0.9)
- details: 10 µM
Hit rate of the full screen: of about 39,000 compounds, about 3,300 (8.5%) were called active. This excerpt belongs to a sample that is enriched for actives.
Entry note: the call must match one of active, inactive

Answered cases to consult:
[
  {
    "smiles repr": "C[C@@H]1CCCCO[C@H](CN(C)Cc2ccc(C(F)(F)F)cc2)[C@H](C)CN([C@@H](C)CO)C(=O)c2cc(NC(=O)c3ccncc3)ccc2O1",
    "label": "inactive"
  },
  {
    "smiles repr": "C[C@H](CO)N1C[C@H](C)[C@H](CN(C)Cc2ccc(Cl)c(Cl)c2)Oc2ccc(NC(=O)NC3CCCCC3)cc2CC1=O",
    "label": "inactive"
  },
  {
    "smiles repr": "C[C@H](CO)N1C[C@H](C)[C@H](CN(C)Cc2ccc(C(F)(F)F)cc2)Oc2ccc(NC(=O)Nc3ccccc3)cc2CC1=O",
    "label": "inactive"
  },
  {
    "smiles repr": "Cc1ccc2sc(C)nc2c1",
    "label": "inactive"
  },
  {
    "smiles repr": "C[C@@H]1CN([C@H](C)CO)C(=O)Cc2cc(NC(=O)NC3CCCCC3)ccc2O[C@@H]1CN(C)Cc1ccc(Cl)c(Cl)c1",
    "label": "active"
  }
]

Entry "C[C@H](CO)N1C[C@H](C)[C@@H](CN(C)Cc2ccc(Cl)c(Cl)c2)Oc2ccc(NC(=O)NC3CCCCC3)cc2CC1=O" : call = ?
inactive

Which outcome was assigned to "C[C@@H]1CCCCO[C@H](CN(C)S(=O)(=O)c2ccc(Cl)cc2)[C@@H](C)CN([C@H](C)CO)C(=O)c2cc(NC(=O)C3CCCCC3)ccc2O1" in this test?
inactive

###

- Test system: HepG2
- test protocol: cytotoxicity call (relative viability < 0.9)
- details: 10 µM
In all, about 39,000 compounds went through this assay and about 3,300 (8.5%) were called active. The entries come from a sample that favours actives as a whole.
Pick one: active, inactive

Worked examples, 5 compounds total:
[
  {
    "smiles repr": "Cc1ccc(S(=O)(=O)N(C)C[C@H]2Oc3ccc(NS(C)(=O)=O)cc3C(=O)N([C@@H](C)CO)C[C@H]2C)cc1",
    "label": "inactive"
  },
  {
    "smiles repr": "Cc1ccc(S(=O)(=O)Nc2ccc3c(c2)C(=O)N([C@H](C)CO)C[C@@H](C)[C@H](CN(C)C(=O)Nc2ccc(C(F)(F)F)cc2)OCCCC[C@@H](C)O3)cc1",
    "label": "inactive"
  },
  {
    "smiles repr": "CN1CCN(CCO)CC1",
    "label": "inactive"
  },
  {
    "smiles repr": "C[C@@H]1CN([C@@H](C)CO)C(=O)CCCn2nncc2CO[C@@H]1CN(C)C(=O)Nc1ccc(N2CCCCC2)cc1",
    "label": "inactive"
  },
  {
    "smiles repr": "C[C@@H]1CN([C@@H](C)CO)C(=O)Cc2cc(NC(=O)CCN3CCOCC3)ccc2O[C@H]1CN(C)C(=O)Nc1ccccc1",
    "label": "inactive"
  }
]

So what was the verdict on "C[C@@H]1CN([C@@H](C)CO)C(=O)c2cc(C#Cc3ccc(F)cc3)cnc2O[C@H]1CN(C)Cc1ccccn1" in this test?
inactive

Field: outcome | Entry: "COCC(=O)N1C[C@]2(CCN(CC2)C(=O)CN2CCOCC2)c2c([nH]c3cc(ccc23)OC)[C@@H]1CO"
inactive

Test call, this compound: "Cc1ccc(S(=O)(=O)Nc2ccc3c(c2)C(=O)N([C@@H](C)CO)C[C@H](C)[C@@H](CN(C)C(=O)Nc2ccc(C(F)(F)F)cc2)OCCCC[C@@H](C)O3)cc1"
active

// return assay outcome for "Cc1ccc(S(=O)(=O)Nc2ccc3c(c2)C(=O)N([C@H](C)CO)C[C@@H](C)[C@H](CN(C)C(=O)Nc2ccc(C(F)(F)F)cc2)OCCCC[C@H](C)O3)cc1"
inactive

Fill in: this test's call for "Cc1ccc(S(=O)(=O)Nc2ccc3c(c2)C(=O)N([C@@H](C)CO)C[C@H](C)[C@@H](CN(C)C(=O)Nc2ccc(C(F)(F)F)cc2)OCCCC[C@H](C)O3)cc1" is ___
active

Please share the test call associated with "O=c1nc(N2CCc3ccccc3C2)cn[nH]1" .
inactive
